The entries below come with measured protein stability index values attached.
B1: BTBD10 (parent)
chain: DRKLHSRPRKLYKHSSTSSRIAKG

variants of: B1; experiment: protein stability index of a GFP-peptide fusion (GPS, HEK-293T) (PSI 1-6); higher = more stable; details: c terminus: a fixed tail appended;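 also: lentivirally expressed fusions sorted by FACS into six bins by GFP to DsRed ratio, PSI derived from sequencing read proportions per bin multiplied by bin number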
# answer = number (no unit)

DRKLHSRPRKLYKHSSTSSRSAKG [I21S]    4.59

variant DFKLHSRPRKLYKHSSTSSRIAKG [R2F] , protein stability index observed: 2.65

variant DRKLHSRPRKLLKHSSTSSRIAKG [Y12L] , protein stability index observed: 3.88

variant DRKLHSRPRKLYKHSSTSSRIAQG [K23Q] , protein stability index observed: 4.1

variant DRKLHSRPRKLYKHSSTSSRIWKG [A22W] , protein stability index observed: 3.47
